Test D rating (% disease control, wheat powdery mildew) values, listed per item
System: Blumeria graminis f. sp. tritici (also known as Erysiphe graminis f. sp. tritici, the causal agent of wheat powdery mildew)
Test: Test D: wheat powdery mildew, preventive spray on wheat seedlings, visual disease rating
Format: in vivo
Settings: no asterisk: standard test suspension concentration; 100 = 100% disease control, 0 = no control relative to controls
Your answer should be a plain number; it is taken to be in %.

Known results for compounds:
Cc1cc(F)ccc1C(O)c1c(Cl)nc(C)n1-c1ccc(F)cc1Cl (centres unmarked) [compound 398] ... 0
Cc1cc(F)ccc1C(O)c1c(Br)nc(C)n1-c1ccc(F)cc1F (centres unmarked) [compound 379] ... 79
Cc1ncc(C(O)c2ccc(F)cc2F)n1-c1ccc(F)cc1F (centres unmarked) [compound 381] ... 0
Cc1nc(Br)c(C(O)c2cccnc2F)n1-c1c(F)cc(F)cc1F (centres unmarked) [compound 414] ... 13

Let's switch to this compound now.
Ask | Fill blank: measured Test D rating (% disease control, wheat powdery mildew) of the compound Cc1cc(F)ccc1C(O)c1c(Br)nc(C)n1-c1c(F)cc(F)cc1Br (centres unmarked) [compound 408] is ____.
Reply | 56

* * *

The molecules listed here are annotated with their Test C rating (% disease control, tomato Botrytis).
Tested on: Botrytis cinerea (the causal agent of tomato Botrytis)
Assay: Test C: tomato Botrytis, preventive spray on tomato seedlings, visual disease rating
Format: in vivo
Settings: no asterisk: standard test suspension concentration; 100 = 100% disease control, 0 = no control relative to controls
Reply numerically in %, unit not repeated.

Worked examples follow.
Cc1cc(F)ccc1C(O)c1c(Cl)nc(C)n1-c1c(F)cccc1Br (stereo not drawn) [compound 407] ... 52
Cc1cc(F)ccc1C(O)c1c(Br)nc(C)n1-c1ccc(F)cc1F (stereo not drawn) [compound 379] ... 99

Ask | // lookup Test C rating (% disease control, tomato Botrytis) | system=Botrytis cinerea (the causal agent of tomato Botrytis) | key= Cc1cc(F)ccc1C(O)c1c(Cl)nc(C)n1-c1ccc(F)cc1Cl (stereo not drawn) [compound 398]
Reply | 46

Ask | Kindly state the measured Test C rating (% disease control, tomato Botrytis) obtained for Cc1nc(Br)c(C(O)c2cccnc2F)n1-c1c(F)cc(F)cc1F (stereo not drawn) [compound 414] with Botrytis cinerea (the causal agent of tomato Botrytis).
Reply | 67

Ask | Query Test C rating (% disease control, tomato Botrytis) on Botrytis cinerea (the causal agent of tomato Botrytis) for Cc1ncc(C(O)c2ccc(F)cc2F)n1-c1c(F)cc(F)cc1Br (stereo not drawn) [compound 410]
Reply | 97

Ask | Record Cc1cc(F)ccc1C(O)c1c(Br)nc(C)n1-c1c(F)cc(F)cc1Br (stereo not drawn) [compound 408] : what is its Test C rating (% disease control, tomato Botrytis) with Botrytis cinerea (the causal agent of tomato Botrytis)?
Reply | 99

Ask | Form field - read-out: Test C rating (% disease control, tomato Botrytis); system: Botrytis cinerea (the causal agent of tomato Botrytis); submitted item: Cc1cc(F)ccc1C(O)c1cnc(C)n1-c1c(F)cccc1Br (stereo not drawn) [compound 405]
Reply | 9

Ask | Given the entry COc1cc(F)c(-n2c(C(O)c3ccc(F)cc3F)cnc2C)c(F)c1 (stereo not drawn) [compound 404] , what Test C rating (% disease control, tomato Botrytis) was observed with Botrytis cinerea (the causal agent of tomato Botrytis)?
Reply | 0

Ask | What Test C rating (% disease control, tomato Botrytis) appears in the records for this molecule with Botrytis cinerea (the causal agent of tomato Botrytis)? Cc1cc(F)ccc1C(O)c1c(Br)nc(C)n1-c1c(F)cccc1Br (stereo not drawn) [compound 406]
Reply | 43
